System: MS2 coat protein
Procedure Summary: apparent KD of MS2 coat protein; higher = weaker reporter binding
Study Conditions: Eterna round: R107; input ligand: arginine 13.2 mM
Measured Endpoint: apparent KD of MS2 coat protein

Which value of apparent KD of MS2 coat protein has been reported for ACAUGAGGAUCACCCAUGUCUGCCACUGAUACCAGCGGAUGCCAACGCCCUUGGCAGCAGAACAUGAGGAUCACCCAUGUAGGCA [Same State Theophylline A GF25] in the records?
0.0995 µM

Which value of apparent KD of MS2 coat protein has been reported for `GGGUACAUCGCGGCCGCCACUUGUGUAAAUACAUGAGGAUCACCCAUGUCGAUGGAGACAUCGGGAAGGACCGGGUGAUGUACCG` in the records?
0.218 µM

Which value of apparent KD of MS2 coat protein has been reported for UCAUGCAGGUCGGCCGCCACUACACACAUGAGGAUCACCCAUGUAGUUACUGGGUGAAGUGGCAGUAGGACCGGGACCUGCACAC [Brourdmod17] in the records?
0.155 µM

Which value of apparent KD of MS2 coat protein has been reported for UUGGUACGACAGCUCAUAUAAGCAUGUGAUACCAGACUGGAAACAGUCCCUUGGCAGCACUUUACAUGAGGAUCACCCAUGUCGG [EThA NP+V+V2 #3 +-Same Structure] in the records?
0.0766 µM

Which value of apparent KD of MS2 coat protein has been reported for CGUAUUGGAAACAGUACGAGUGAUCCGGUCCGAGGACCGGUACGGCCGCCACUCGAAAUUAAUAAACAUGAGGAUCACCCAUGUA [Ex Tryptophan A 10] in the records?
0.0148 µM

Next:
Which value of apparent KD of MS2 coat protein has been reported for AUGCUUGUCAGAAGGAGCGUCUUUAACAUGAGGAUCACCCAUGUAUCAUGGAAUUUGAUGAGACAGGUAGGUCGCUGAAUAGUAA [JR_SSArginiB_Sub021] in the records?
0.03 µM

Which value of apparent KD of MS2 coat protein has been reported for UAUCCACAUGAGGAUCACCCAUGUAGGGAAGGAGCGGUGAUUUCACCAGGUAGGUCGCCUUACUGAGGAGAACCGGUGGAAUCGU [Exclusion - Arginine A (Freestyle 30)] in the records?
0.0455 µM

Which value of apparent KD of MS2 coat protein has been reported for AACAUGAGGAUCACCCAUGUCCCAUGUGAACGAGGACCGGUACGGCCGCCACUCGAAUAAGGCGGCACAUGAGGAUCACCCACAU [AstrosSSTry#1] in the records?
0.101 µM
